Measured EC50, listed per entry.
# Tested on: glioma stem cell line U3013
# Run description: In vitro cancer cell and CSC viability assay (ATP quantification, CellTiterGlo)
# Format: cell-based, human
# Experimental conditions: Homo sapiens; U3013, 24 hours exposure; read-out: In vitro efficacy (viability) EC50
# Description: The ability of Examples S1-S23 to selectively induce cytotoxicity in glioma/glioblastoma cancer cells or glioma/glioblastoma cancer stem cells was determined by quantification of ATP production in glioma stem cell line U3013 in the presence of using CellTiterGlo reagent (Promega). […] The individual isomers (S21-S23) of racemic S10 were evaluated in order to determine the enantiospecific pharmacology of the individual isomers. […]

Solved cases below.
Molecule	Result
OC(c1cc(C2CCCCC2)nc2ccccc12)C1CCCCN1 (stereo not shown)	12.7 µM
OC(c1cc(-c2ccc(Cl)cc2)nc2ccccc12)C1CCCN1 (stereo not shown)	8.72 µM
OC(c1cc(-c2ccccc2)nc2c1ccc1ccccc12)C1CCCCN1 (stereo not shown)	0.39 µM
O[C@H](c1cc(-c2ccc(C(F)(F)F)nc2)nc2ccccc12)[C@@H]1CCCCN1 (racemic)	38 µM
COc1ccc(-c2cc(C(O)C3CCCCN3)c3ccccc3n2)cc1 (stereo not shown)	7.59 µM

For OC(c1cc(-c2ccccc2)nc2ccc(Cl)cc12)C1CCCCN1 (stereo not shown) , what is its reported EC50?
3.62 µM

Given OC(c1cc(-c2ccc(Cl)cc2)nc2c(Cl)cccc12)C1CCCCN1 (stereo not shown) , state its recorded EC50.
1.03 µM

What measured EC50 goes with Cc1ccc(-c2cc([C@@H](O)[C@@H]3CCCCN3)c3ccccc3n2)cc1C#N (racemic) ?
32.1 µM

EC50 for O[C@@H](c1cc(-c2ccc(Cl)cc2)nc2ccccc12)[C@@H]1CCCCN1 ?
10.5 µM

Given OC(c1cc(-c2ccc(Cl)cc2Cl)nc2ccccc12)C1CCCCN1 (stereo not shown) , state its recorded EC50.
3.22 µM

Please look up its EC50: O[C@H](c1cc(-c2ccc(Cl)cc2)nc2ccccc12)[C@H]1CCCCN1
9.95 µM

Could you tell me which EC50 is on file for CCCN(CCC)C(=O)c1ccc(-c2cc([C@@H](O)[C@@H]3CCCCN3)c3ccccc3n2)cc1 (racemic) ?
35.4 µM

So what's the measured EC50 for this one? OC(c1cc(-c2ccc(Cl)cc2)nc2ccccc12)C1CCCCN1 (racemic)
2.36 µM
